# System Tested: Lysosomal Pro-X carboxypeptidase (Mus musculus, UniProt Q7TMR0)
# Sequence (Q7TMR0 whole entry): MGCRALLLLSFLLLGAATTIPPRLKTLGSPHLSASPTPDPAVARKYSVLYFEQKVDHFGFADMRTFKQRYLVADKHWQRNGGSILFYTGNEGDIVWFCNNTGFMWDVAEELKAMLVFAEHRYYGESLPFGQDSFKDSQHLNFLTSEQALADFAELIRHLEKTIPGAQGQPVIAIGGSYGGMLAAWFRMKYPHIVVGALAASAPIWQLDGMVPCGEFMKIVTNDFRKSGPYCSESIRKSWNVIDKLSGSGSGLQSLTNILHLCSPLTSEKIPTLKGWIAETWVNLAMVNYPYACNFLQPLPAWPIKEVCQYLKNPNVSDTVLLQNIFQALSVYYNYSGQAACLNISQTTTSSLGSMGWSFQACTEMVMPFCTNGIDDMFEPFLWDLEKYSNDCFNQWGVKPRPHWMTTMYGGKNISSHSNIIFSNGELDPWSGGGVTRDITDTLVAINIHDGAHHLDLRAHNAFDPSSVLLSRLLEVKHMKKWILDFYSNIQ
Measured Attribute: IC50 (nM)

INSERT INTO results (structure_smiles, system_tested, measured_attribute, unit_annotation, assay_result) VALUES
  ('C[C@@]1(N)C[C@H](C(=O)N2CCC(c3ccnn3-c3ccc(F)c(Cl)c3)CC2)[C@@H](c2ccc(F)cc2F)C1', 'Lysosomal Pro-X carboxypeptidase (Mus musculus, UniProt Q7TMR0)', 'IC50', 'nM', 1),
  ('Cc1nc(C2CCN(C(=O)[C@@H]3C[C@@](C)(N(C)C)C[C@H]3c3ccc(F)cc3F)CC2)n(-c2cc(Cl)ccc2Cl)n1', 'Lysosomal Pro-X carboxypeptidase (Mus musculus, UniProt Q7TMR0)', 'IC50', 'nM', 2),
  ('Cc1nc(C2CCN(C(=O)[C@@H]3C[C@@](C)(N)C[C@H]3c3ccc(F)cc3F)CC2)n(-c2ccc(Cl)c(C)c2)n1', 'Lysosomal Pro-X carboxypeptidase (Mus musculus, UniProt Q7TMR0)', 'IC50', 'nM', 85.1),
  ('C[C@@]1(N)C[C@@H](C(=O)N2CCC(c3ncnn3-c3ccc(F)c(Cl)c3)CC2)[C@H](c2ccc(F)cc2F)C1', 'Lysosomal Pro-X carboxypeptidase (Mus musculus, UniProt Q7TMR0)', 'IC50', 'nM', 16),
  ('C[C@]1(N)C[C@H](C(=O)N2CCC(c3ccnn3-c3ccc(F)c(Cl)c3)CC2)[C@@H](c2ccc(F)cc2F)C1', 'Lysosomal Pro-X carboxypeptidase (Mus musculus, UniProt Q7TMR0)', 'IC50', 'nM', 2.6),
  ('Cc1cc(C2CCN(C(=O)[C@@H]3C[C@@](C)(N(C)C)C[C@H]3c3ccc(F)cc3F)CC2)n(-c2ccc(F)c(Cl)c2)n1', 'Lysosomal Pro-X carboxypeptidase (Mus musculus, UniProt Q7TMR0)', 'IC50', 'nM', 0.5),
  ('Cc1cc(C2CCN(C(=O)[C@@H]3C[C@@](C)(N(C)C)C[C@H]3c3ccc(F)cc3F)CC2)n(-c2cc(Cl)ccc2Cl)n1', 'Lysosomal Pro-X carboxypeptidase (Mus musculus, UniProt Q7TMR0)', 'IC50', 'nM', 0.4),
  ('Cc1cc(C2CCN(C(=O)[C@@H]3C[C@@](C)(N)C[C@H]3c3ccc(F)cc3F)CC2)n(-c2cc(Cl)ccc2Cl)n1', 'Lysosomal Pro-X carboxypeptidase (Mus musculus, UniProt Q7TMR0)', 'IC50', 'nM', 0.9);
